Where do the numbers come from? From patent US10774074B2.

Provide the recorded pIC50 for the entries that follow.
# measured-on: human alpha2A receptors (Homo sapiens)
# Sequence (P08913 1-465): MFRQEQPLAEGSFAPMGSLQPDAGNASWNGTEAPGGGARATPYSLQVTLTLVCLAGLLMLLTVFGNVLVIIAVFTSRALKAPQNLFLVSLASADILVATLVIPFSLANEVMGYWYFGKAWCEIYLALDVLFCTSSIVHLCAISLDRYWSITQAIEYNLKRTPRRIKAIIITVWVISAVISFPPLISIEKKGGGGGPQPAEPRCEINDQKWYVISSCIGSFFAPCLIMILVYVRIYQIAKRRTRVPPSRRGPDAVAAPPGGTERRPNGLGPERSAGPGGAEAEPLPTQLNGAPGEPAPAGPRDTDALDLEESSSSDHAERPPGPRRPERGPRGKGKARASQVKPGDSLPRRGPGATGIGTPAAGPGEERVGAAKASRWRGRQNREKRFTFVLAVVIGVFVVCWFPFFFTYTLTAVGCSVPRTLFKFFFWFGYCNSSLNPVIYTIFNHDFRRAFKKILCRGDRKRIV
# protocol-text: Determination of alpha2A antagonistic activity in vitro (FLIPR calcium assay, CHO cells)
# stated-conditions: antagonism of adrenaline stimulation; CHO cells stably transfected with human alpha2A receptor and Gα16; intracellular calcium (FLIPR); read-out: Alpha 2A Adrenaline IC50
# Protocol: EXPERIMENT 1: Determination of alpha2A and alpha2C Antagonistic Activity In Vitro […] The growth medium was removed and the cells were incubated with the test compounds and the FLIPR Calcium 6 Assay reagent (Molecular Devices, CA, USA) for 2 h at 37° C. in dark. […] For example, if the number of plates from which results were obtained was three, 72 (4*6*3) wells were thus measured to construct dose-response relationship. […]
Where a name gives a salt, the structure may show the parent alone.
In textbook form, pIC50 equals minus log to base ten of the concentration in mol/L.

Note down pIC50 recorded for Cc1cccc(-n2nc(C)cc2N2CCN(C[C@H]3COc4ccccc4O3)CC2)n1 [Compound of example 40] 5.65

Note down pIC50 recorded for c1ccc2c(c1)OC[C@H](CN1CCN(c3nsc4cccnc34)CC1)O2 [Compound of example 36, hydrochloride] 5.18

Note down pIC50 recorded for Cc1c(N2CCCC2=O)c(N2CCN(C[C@H]3COc4ccccc4O3)CC2)nn1C [Compound of example 14] 5.07

Note down pIC50 recorded for Cc1c(N2CCOC2=O)c(N2CCN(C[C@H]3COc4ccccc4O3)CC2)nn1C [Compound of example 5] 5.34

Note down pIC50 recorded for O=C1NCCN1c1nnc(N2CCN(C[C@H]3COc4ccccc4O3)CC2)s1 [Compound of example 25] 4.94

Note down pIC50 recorded for c1ccc2c(c1)OC[C@H](CN1CCN(c3nsnc3Nc3ccncn3)CC1)O2 [Compound of example 19] 4.99

Note down pIC50 recorded for COCc1c(N2CCN(C[C@H]3COc4ccccc4O3)CC2)nn(C)c1C [Compound of example 11] 5.17

Note down pIC50 recorded for COc1cccc(-n2nc(C)cc2N2CCN(C[C@H]3COc4ccccc4O3)CC2)n1 [Compound of example 39] 5.74

Note down pIC50 recorded for Cc1cc(N2CCN(C[C@H]3COc4ccccc4O3)CC2)n(-c2ccccn2)n1 [Compound of example 38] 5.48

Note down pIC50 recorded for O=C1CCCN1c1nsnc1N1CCN(C[C@H]2COc3ccccc3O2)CC1 [Compound of example 24] 5.07

Note down pIC50 recorded for Cc1c(C(C)(C)O)c(N2CCN(C[C@H]3COc4ccccc4O3)CC2)nn1C [Compound of example 13] 6.02

Note down pIC50 recorded for c1cnc(Nc2nsnc2N2CCN(C[C@H]3COc4ccccc4O3)CC2)nc1 [Compound of example 18] 5.28

Note down pIC50 recorded for COCc1scnc1N1CCN(C[C@H]2COc3ccccc3O2)CC1 [Compound of example 8] 5.71

Note down pIC50 recorded for c1ccc(-n2nccc2N2CCN(C[C@H]3COc4ccccc4O3)CC2)nc1 [Compound of example 10] 5.11

Note down pIC50 recorded for O=C1CCCN1c1ncsc1N1CCN(C[C@H]2COc3ccccc3O2)CC1 [Compound of example 20] 5.04

Note down pIC50 recorded for CCOC(=O)c1c(N2CCN(C[C@H]3COc4ccccc4O3)CC2)nn(C)c1C [Compound of example 12] 5.57
